Target: enkephalinase (enkephalin dipeptidylcarboxypeptidase)
Experiment: Determination of enkephalinasic (enkephalin dipeptidylcarboxypeptidasic) activity and effect of inhibitors, striatal membrane fraction, 3H-leucine-enkephalin
Assay type: biochemical, rats or mice
Details: 10 nM leucine-enkephalin 3H, 25° C., pH 7.4, 15 mn, read-out: 50% inhibitory concentration
From the text: Determination of the "enkephalinasic" (enkephalin dipeptidylcarboxypeptidasic) activity and determination of the effect of inhibitors. The enzyme preparation used is a membrane fraction from the striatum of rats or mice. […] Determination of the radioactivity of the tripeptide is effected by liquid scintillation spectrometry. […]
propertyName: log10(IC50) (log10 of the value in nM)
Please note: log10 values; quantity IC50; unit nM.

{"columns": ["compound", "propertyName", "endpointValue"],
 "data": [
  ["CC(=O)SCC(Cc1ccccc1)C(=O)NCC(=O)OCc1ccccc1 (centres unmarked)", "log10(IC50)", 2.58],
  ["CC(C)C[C@H](NC(=O)[C@H](Cc1ccccc1)SC(=O)c1ccccc1)C(=O)O", "log10(IC50)", 3.70],
  ["O=C(N[C@@H](COCc1ccccc1)C(=O)O)C(CS)Cc1ccccc1 (some centres unmarked)", "log10(IC50)", 0.60]
]}

// input: 2 compounds below; output: log10(IC50) for each
1. CC(=O)SCS[C@@H](Cc1ccccc1)C(=O)N[C@@H](CC(C)C)C(=O)O
2. O=C(CNC(=O)C(CS)Cc1ccccc1)OCc1ccccc1 (centres unmarked)

A)
3.00
0.89
